Tested on: Vibrio alginolyticus
assay details: Antibacterial activity against Vibrio alginolyticus QDIO-7 assessed as reduction in microbial growth after 24 hrs by serial dilution method
Type: functional
reported metric: MIC (mg/L)

COc1cc2c(c(O)c1OC/C=C(\C)CC/C=C(\C)CCCC(C)(C)OC(C)=O)COC2=O : 4
CC(C)=CCC[C@H](C)[C@H]1CC[C@]2(C)C[C@H]3[C@H]4/C(=C\C[C@@H]12)CO[C@@]4(O)C[C@@]3(C)O : 4

I. COc1cc2c(c(O)c1OC/C=C(\C)CC/C=C(\C)CCCC(C)(C)O)COC2=O
II. COc1cc2c(c(O)c1OC/C=C(\C)CC/C=C(\C)CCC=C(C)C)COC2=O
// which entry has the larger MIC value, I or II ? To answer, give the label that identifies your chosen option.
I
(I: 8 mg/L, II: 4 mg/L)

----------
System: Pseudomonas aeruginosa
assay details: Antibacterial activity against Pseudomonas aeruginosa QDIO-2 assessed as reduction in microbial growth after 24 hrs by serial dilution method
Type: functional
reported metric: MIC (µg/mL)

These solved cases illustrate the format of a correct answer.
O=C(N[C@H](CO)[C@H](O)c1ccc([N+](=O)[O-])cc1)C(Cl)Cl : 1
COc1cc2c(c(O)c1OC/C=C(\C)CC/C=C(\C)CCC=C(C)C)COC2=O : 16
CC(C)=C/C=C\[C@H](C)[C@H]1CC[C@]2(C)C[C@@H]3C(C)=CC(=O)[C@H]3/C(C=O)=C\C[C@@H]12 : 8

P. COc1cc2c(c(O)c1OC/C=C(\C)CC/C=C(\C)CCCC(C)(C)O)COC2=O
Q. CC(C)=CCC[C@H](C)[C@H]1CC[C@]2(C)C[C@H]3[C@H]4/C(=C\C[C@@H]12)CO[C@@]4(O)C[C@@]3(C)O
Record comparison, field MIC: mark the lower of P and Q . Answer format: the label of the selected item.
Q

----------
Tested on: Edwardsiella tarda
assay details: Antibacterial activity against Edwardsiella tarda QDIO-8 assessed as reduction in microbial growth after 24 hrs by serial dilution method
Type: functional
reported metric: MIC (µg/mL)

COc1cc2c(c(O)c1OC/C=C(\C)CC/C=C(\C)CCC=C(C)C)COC2=O : 8

A. COc1cc2c(c(O)c1OC/C=C(\C)CC/C=C(\C)CCCC(C)(C)OC(C)=O)COC2=O
B. CC(C)=C/C=C\[C@H](C)[C@H]1CC[C@]2(C)C[C@@H]3C(C)=CC(=O)[C@H]3/C(C=O)=C\C[C@@H]12
Short answer wanted: higher MIC, A or B ? # answer = label of selected item
B
(B: 8 µg/mL, A: 4 µg/mL)

----------
Tested on: Vibrio anguillarum
assay details: Antibacterial activity against Vibrio anguillarum QDIO-9 assessed as reduction in microbial growth after 24 hrs by serial dilution method
Assay type: functional
Measured MIC, listed per entry for reference.

CC(C)=C/C=C\[C@H](C)[C@H]1CC[C@]2(C)C[C@@H]3C(C)=CC(=O)[C@H]3/C(C=O)=C\C[C@@H]12 : 32 µg/mL
CC(C)=CCC[C@H](C)[C@H]1CC[C@]2(C)C[C@@H]3C(C)=CC(=O)[C@H]3/C(CO)=C\C[C@@H]12 : > 32 µg/mL

Now let's try a different one.
For the compound "CC(C)=CCC[C@H](C)[C@H]1CC[C@]2(C)C[C@@H]3C(C)=CC(=O)[C@H]3/C(C=O)=C\C[C@@H]12" , what MIC is on record?
> 32 µg/mL

Cited source for all entries: ChEMBL document CHEMBL4673368
